The measured values listed here are drawn from PubChem BioAssay AID248.

test system: L1210 leukemia ip in BDF1 mice, survival T/C; assay: NCI In Vivo Anticancer Drug Screen. Data for tumor model L1210 Leukemia (intraperitoneal) in B6D2F1 (BDF1) mice; details: endpoint: mean survival time; dose: 200.0 mg/kg/injection; schedule: Q04DX002 (ip); vehicle: saline; higher = longer survival
Inconclusive results and toxic doses are left out.
value.kind: T/C

Task item: Give L1210 leukemia ip in BDF1 mice, survival T/C T/C for CCOC(=O)C(CBr)CBr
Reply: 88 % of control

Task item: Give L1210 leukemia ip in BDF1 mice, survival T/C T/C for c1ccc2c[s+]ccc2c1
Reply: 94 % of control

Task item: Give L1210 leukemia ip in BDF1 mice, survival T/C T/C for O=C(C1CC=CCC1)N1CCCC1 (centres undefined)
Reply: 104 % of control

Task item: Give L1210 leukemia ip in BDF1 mice, survival T/C T/C for Cn1[nH]c(=O)[nH]c1=O
Reply: 100 % of control

* * *

tested on: L1210 leukemia ip in BDF1 mice, survival T/C; experiment: NCI In Vivo Anticancer Drug Screen. Data for tumor model L1210 Leukemia (intraperitoneal) in B6D2F1 (BDF1) mice; conditions: endpoint: mean survival time; dose: 200.0 mg/kg/injection; schedule: Q01DX009 (ip); vehicle: saline with Tween-80; higher = longer survival
Inconclusive results and toxic doses are left out.
For each entry below, report its T/C value.

Task item: Give L1210 leukemia ip in BDF1 mice, survival T/C T/C for CC1(C)COP(=O)(O)OC1
Reply: 91 % of control

Task item: Give L1210 leukemia ip in BDF1 mice, survival T/C T/C for COCC1=CC(=O)CCC1CC1OC1(C)C (centres undefined)
Reply: 96 % of control

Task item: Give L1210 leukemia ip in BDF1 mice, survival T/C T/C for CSc1ccc(SCCOC(=O)Nc2ccc(Cl)cc2Cl)cc1
Reply: 98 % of control

Task item: Give L1210 leukemia ip in BDF1 mice, survival T/C T/C for C=CCn1c(=S)[nH]c2ccccc2c1=O
Reply: 91 % of control

Task item: Give L1210 leukemia ip in BDF1 mice, survival T/C T/C for CCCCN1C(=O)N(CCCC)C(=O)C(Br)(Br)C1=O
Reply: 97 % of control

Task item: Give L1210 leukemia ip in BDF1 mice, survival T/C T/C for CCNc1nc(Cl)nc(-c2cn(-c3ccccc3)c3ccccc23)n1
Reply: 92 % of control

Task item: Give L1210 leukemia ip in BDF1 mice, survival T/C T/C for c1cc2c3c(c1)/C(=N\N=C1/CCN4CCCc5cccc1c54)CCN3CCC2
Reply: 92 % of control

Task item: Give L1210 leukemia ip in BDF1 mice, survival T/C T/C for O=[N+]([O-])c1cccc(/C=C/C=C/c2ccc(S(=O)(=O)F)cc2Cl)c1
Reply: 93 % of control

Task item: Give L1210 leukemia ip in BDF1 mice, survival T/C T/C for O=C(O)C(O)(c1ccccc1)C(O)c1ccccc1 (centres undefined)
Reply: 97 % of control

Task item: Give L1210 leukemia ip in BDF1 mice, survival T/C T/C for C=CCN(CC=C)/N=N/c1[nH]ncc1C(=O)OCC
Reply: 100 % of control

Task item: Give L1210 leukemia ip in BDF1 mice, survival T/C T/C for O=C(CCC(O)c1ccccc1)c1ccccc1 (centres undefined)
Reply: 94 % of control

Task item: Give L1210 leukemia ip in BDF1 mice, survival T/C T/C for Nc1ccnc(Cl)c1N
Reply: 109 % of control

Task item: Give L1210 leukemia ip in BDF1 mice, survival T/C T/C for NC(=NC1CCC(C2CCC(N)CC2)CC1)C(N)=NC1CCC(C2CCC(N)CC2)CC1 (centres undefined)
Reply: 98 % of control

Task item: Give L1210 leukemia ip in BDF1 mice, survival T/C T/C for CCCCCC(/C=C/C1C=CC(=O)C1C/C=C/CCCC(=O)OC)OC(C)=O (centres undefined)
Reply: 97 % of control

Task item: Give L1210 leukemia ip in BDF1 mice, survival T/C T/C for Cc1ccc(C(c2ccc(C)cc2)C(Cl)Cl)cc1
Reply: 109 % of control

Task item: Give L1210 leukemia ip in BDF1 mice, survival T/C T/C for Cn1nc(NC(=O)C(F)(F)F)c2ncc(-c3ccc(Cl)cc3)nc21
Reply: 97 % of control

Task item: Give L1210 leukemia ip in BDF1 mice, survival T/C T/C for c1ccc(Cc2[nH]c3ccccc3c2-c2ccccc2)cc1
Reply: 87 % of control

Task item: Give L1210 leukemia ip in BDF1 mice, survival T/C T/C for O=C(NO)N/N=C/c1ccc(/C=N/NC(=O)NO)cc1
Reply: 95 % of control

Task item: Give L1210 leukemia ip in BDF1 mice, survival T/C T/C for COc1ccc(C)cc1NC(=O)OCCOc1ccc(C(C)(C)C)cc1
Reply: 90 % of control

Task item: Give L1210 leukemia ip in BDF1 mice, survival T/C T/C for CC(=O)Oc1cccc(C)c1
Reply: 106 % of control

Task item: Give L1210 leukemia ip in BDF1 mice, survival T/C T/C for CCC(CO)NC(=O)Nc1cccc2ccccc12 (centres undefined)
Reply: 96 % of control

Task item: Give L1210 leukemia ip in BDF1 mice, survival T/C T/C for COc1ccc(Cl)cc1NC(=O)Nc1c(C)n(C)n(-c2ccccc2)c1=O
Reply: 89 % of control

Task item: Give L1210 leukemia ip in BDF1 mice, survival T/C T/C for Nc1ccccc1SC(CC(=O)c1ccc(-c2ccccc2)cc1)c1ccco1 (centres undefined)
Reply: 91 % of control

Task item: Give L1210 leukemia ip in BDF1 mice, survival T/C T/C for CC=NC(C[S-])C(=O)O.CC=NC(C[S-])C(=O)O.[Fe+2] (centres undefined)
Reply: 91 % of control

Task item: Give L1210 leukemia ip in BDF1 mice, survival T/C T/C for CC1CC2(C)C(CC1=O)CC(C)C1C2CCC2(C)C1CCC2(C)O (centres undefined)
Reply: 90 % of control

Task item: Give L1210 leukemia ip in BDF1 mice, survival T/C T/C for [B-][N+](CC)(CC)c1ccccc1
Reply: 92 % of control

Task item: Give L1210 leukemia ip in BDF1 mice, survival T/C T/C for Cc1ccc(S(=O)(=O)Nc2ccc3ncsc3c2[N+](=O)[O-])cc1
Reply: 93 % of control

Task item: Give L1210 leukemia ip in BDF1 mice, survival T/C T/C for O=C1C=CC(=O)C(SCCC(=O)O)=C1
Reply: 96 % of control

Task item: Give L1210 leukemia ip in BDF1 mice, survival T/C T/C for COc1cc(CC2=NCCc3cc(OC)c(OCc4ccccc4)cc32)ccc1OCc1ccccc1
Reply: 100 % of control

Task item: Give L1210 leukemia ip in BDF1 mice, survival T/C T/C for CCN(C(=O)Nc1ccccc1)c1ccccc1C
Reply: 86 % of control

Task item: Give L1210 leukemia ip in BDF1 mice, survival T/C T/C for COc1cc(/C=C/C=C/C(=O)N2CCCCC2)ccc1O
Reply: 92 % of control

Task item: Give L1210 leukemia ip in BDF1 mice, survival T/C T/C for CC1CSCC(C)O1 (centres undefined)
Reply: 95 % of control

Task item: Give L1210 leukemia ip in BDF1 mice, survival T/C T/C for Oc1ccc(NC(=S)Nc2ccccc2)cc1
Reply: 88 % of control

Task item: Give L1210 leukemia ip in BDF1 mice, survival T/C T/C for O=C(c1ccccc1)C(Cl)C(O)(C(F)(F)F)C(F)(F)F (centres undefined)
Reply: 108 % of control

Task item: Give L1210 leukemia ip in BDF1 mice, survival T/C T/C for O=C(N/N=C/c1cccc(F)c1)c1ccc(Cl)cc1
Reply: 94 % of control

Task item: Give L1210 leukemia ip in BDF1 mice, survival T/C T/C for Oc1ccc(N=Cc2ccc(C=Nc3ccc(O)cc3)cc2)cc1
Reply: 100 % of control

Task item: Give L1210 leukemia ip in BDF1 mice, survival T/C T/C for NC(=O)C(CC(=O)OCc1ccccc1)NC(=O)OCc1ccccc1 (centres undefined)
Reply: 90 % of control

Task item: Give L1210 leukemia ip in BDF1 mice, survival T/C T/C for O=C(/C=C/C=C/c1ccccc1)c1ccccc1O
Reply: 94 % of control

Task item: Give L1210 leukemia ip in BDF1 mice, survival T/C T/C for COC1(c2ccc([N+](=O)[O-])o2)OC1(C)C (centres undefined)
Reply: 95 % of control
